# MEASUREMENT PROTOCOL: Biodistribution of 14C-CA4P following topical administration of a gel
# Type: in vivo, New Zealand rabbits
# MEASUREMENT SETUP: choroid; 3% topical gel
PROPERTY NAME: Cmax (µM)
Return type: number; implicit unit µM.

(Q) Return reported Cmax. Input compound: COc1ccc(/C=C\c2cc(OC)c(OC)c(OC)c2)cc1OP(=O)([O-])[O-].[Na+].[Na+] [CA4P, combretastatin A4 disodium phosphate]
(A) 10.7

###

# MEASUREMENT PROTOCOL: Biodistribution of 14C-CA4P following subconjunctival injection
# Type: in vivo, New Zealand rabbits
# MEASUREMENT SETUP: retina; 1 mg/ml subconjunctival
PROPERTY NAME: Cmax (nM)
Return type: number; implicit unit nM.

(Q) Return reported Cmax. Input compound: COc1ccc(/C=C\c2cc(OC)c(OC)c(OC)c2)cc1OP(=O)([O-])[O-].[Na+].[Na+] [CA4P, combretastatin A4 disodium phosphate]
(A) 1700
